Assay read-out IC50; system under study: Ubiquitin carboxyl-terminal hydrolase 17-like protein 5 (Homo sapiens).

{"givenSmiles": "COc1ccc2[nH]c3c(c2c1)CCN1C(=O)N(c2ccccc2C(=O)NCc2ccccc2)C(=O)[C@]31C", "studySystem": "Ubiquitin carboxyl-terminal hydrolase 17-like protein 5 (Homo sapiens)", "IC50": "34.5 µM"}
{"givenSmiles": "COCCCn1c(C(=O)Nc2ccccc2OC)cc2c(=O)n3ccccc3nc21", "studySystem": "Ubiquitin carboxyl-terminal hydrolase 17-like protein 5 (Homo sapiens)", "IC50": "12.4 µM"}
{"givenSmiles": "COc1cc2c(cc1OC)-c1cc(Nc3ccc(Br)cc3)nc(=O)n1CC2", "studySystem": "Ubiquitin carboxyl-terminal hydrolase 17-like protein 5 (Homo sapiens)", "IC50": "1.65 µM"}
{"givenSmiles": "O=C(c1cc(-c2ccc(Cl)cc2)n[nH]1)N1CCN(C(=O)c2ccco2)CC1", "studySystem": "Ubiquitin carboxyl-terminal hydrolase 17-like protein 5 (Homo sapiens)", "IC50": "32.2 µM"}
{"givenSmiles": "Nc1ccc(NC(=O)c2cc3c(s2)CCC3)cc1[N+](=O)[O-]", "studySystem": "Ubiquitin carboxyl-terminal hydrolase 17-like protein 5 (Homo sapiens)", "IC50": "24.6 µM"}

---

Biological target: Ubiquitin carboxyl-terminal hydrolase 17-like protein 5 (Homo sapiens)
Experiment: ubiquitin-specific protease 17 DUB inhibitors, concentration-effect assay, cell-free, verification of initial screening actives (AID 1645864)
Settings: purified USP17, ubiquitin-rhodamine cleavage fluorescence, 3 h
The source made the active and inactive calls.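 How the source made its calls: active means maximal inhibition of USP17 at or above 30% in the confirmation dose-response, a value not among the printed readouts; inactive means the rest.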
Classes used: 1 (active), -1 (inactive)

{"compound": "COc1ccc(-c2nnc(SCc3ccccc3C#N)o2)c(OC)c1", "assignedLabel": -1}
{"compound": "CSc1nc2ncc3c(=O)n(CCc4ccccc4)ccc3n2n1", "assignedLabel": -1}
{"compound": "COc1cccc(-n2c(=O)[nH]c3c(C(N)=O)nc(-c4ccc(OCc5ccccc5)cc4)nc32)c1", "assignedLabel": -1}
{"compound": "Cc1ccccc1NC(=O)Cn1c(N2CCOCC2)nc2cc(C)n(C)c2c1=O", "assignedLabel": 1}
{"compound": "CC1CS(=O)(=O)N(c2ccc(C(=O)Nc3ccc4c(c3)OCCO4)cc2)C1=O (stereo unspecified)", "assignedLabel": 1}
{"compound": "O=C(O)c1ccc(C2Cc3c([nH]c(=O)[nH]c3=O)O2)cc1 (stereo unspecified)", "assignedLabel": 1}
{"compound": "CCOC(=O)c1ccc(NC(=O)Cn2c(=O)n(CC(=O)NCCc3ccc(OC)c(OC)c3)c(=O)c3sccc32)cc1", "assignedLabel": 1}
{"compound": "Cc1ccc2[nH]cc(S(=O)(=O)c3ccc(C)c(F)c3)c(=O)c2c1", "assignedLabel": 1}
{"compound": "O=C(Nc1ccccc1-c1nc2ccccc2[nH]1)c1sc2ccccc2c1Cl", "assignedLabel": 1}
{"compound": "O=C(NCc1ccc(Br)cc1)c1ccc(-c2cccnc2)nc1", "assignedLabel": 1}
{"compound": "CC[C@H](C)[C@H](NC(=O)[C@H]([C@@H](C)CC)N(C)C(C)=O)C(=O)N[C@H](C(=O)N[C@@H](CC(C)C)C(=O)C1(C)CO1)[C@@H](C)O (stereo partly specified)", "assignedLabel": -1}
{"compound": "CCc1nc(-c2cccc(NC(=O)c3ccc(C#N)cc3F)c2)no1", "assignedLabel": -1}
{"compound": "COc1ccc(C)cc1NC(=O)C1CC(=O)Nc2nc(SCc3ccccc3)nn21 (stereo unspecified)", "assignedLabel": 1}
{"compound": "Cc1sc(NC(=O)CN2CCc3ccccc3C2)nc1-c1ccc2c(c1)CCN2C(=O)C1CCCCC1", "assignedLabel": -1}
{"compound": "Cc1nc(SCC(=O)Nc2cc(Cl)ccc2C)c2oc3ccccc3c2n1", "assignedLabel": 1}
{"compound": "CCCC(=O)Nc1nc2ccc(CCC(=O)NCc3ccc(F)cc3)cc2s1", "assignedLabel": 1}
{"compound": "O=C1/C(=C/c2cn(-c3ccccc3)nc2-c2ccc3c(c2)OCCO3)Cc2ccccc21", "assignedLabel": -1}
{"compound": "Cc1noc(C)c1COc1cccc(C(=O)Nc2cc(Cl)ccc2-n2cncn2)c1", "assignedLabel": -1}
{"compound": "Fc1ccc(CSc2nnc(-c3ccccn3)n2Cc2ccco2)cc1", "assignedLabel": -1}
{"compound": "O=C(Nc1ccc(-c2nnc3n2CCCCC3)cc1)c1ccc2c(c1)OCO2", "assignedLabel": -1}
{"compound": "COc1cccc(NC(=O)C2CCC(CNS(=O)(=O)c3ccc4c(c3)C(C)(C)C(=O)N4C)CC2)c1 (stereo unspecified)", "assignedLabel": -1}
{"compound": "CC(C)CC1NC(=O)C2CCCN2C1=O (stereo unspecified)", "assignedLabel": 1}
{"compound": "CCc1noc(-c2ccc(OCC(=O)Nc3ccc(C)cc3C)cc2)n1", "assignedLabel": 1}
{"compound": "COc1cccc2cc(C(=O)Nc3nc(-c4ccncc4)cs3)oc12", "assignedLabel": 1}
{"compound": "O=C(c1nnn(Cc2ccc(Cl)cc2)c1-n1cccc1)N1CCCC1", "assignedLabel": -1}
{"compound": "O=C(CSc1nncc2ccccc12)Nc1ccc2c(c1)OCO2", "assignedLabel": -1}
{"compound": "Cc1cc(=O)n(C)c2c(O)c3c(cc12)c(C)cc(=O)n3C", "assignedLabel": 1}
{"compound": "CC1CC(=O)N(Cc2ccc([N+](=O)[O-])cc2)c2ccccc2S1 (stereo unspecified)", "assignedLabel": -1}
{"compound": "COc1ccc(N(CC(=O)Nc2cccc(F)c2)S(=O)(=O)c2ccc(OC)c(OC)c2)cc1", "assignedLabel": 1}
{"compound": "O=C(Nc1ccc(-c2cn3ccccc3n2)cc1)C1C=C2C=C(Br)C=CC2OC1=O (stereo unspecified)", "assignedLabel": 1}
{"compound": "COc1cc2c(cc1OC)-c1cc(NCc3cc(OC)c(OC)c(OC)c3)nc(=O)n1CC2", "assignedLabel": -1}
{"compound": "CCCCc1nc2sc3c(NCCN4CCOCC4)ncnc3c2c2c1CCC2", "assignedLabel": -1}
{"compound": "COc1cc(NC(=O)Cn2c(=O)n(-c3ccc(CC(=O)NC4CCCC4)cc3)c(=O)c3ccccc32)cc(OC)c1", "assignedLabel": -1}
{"compound": "CCOc1ccc2c(c1)c(=O)c(C(=O)c1ccccc1)cn2CC(=O)Nc1ccc2c(c1)OCCO2", "assignedLabel": 1}
{"compound": "COc1cc(C(=O)NC(Cc2ccccc2)c2nc3ccccc3[nH]2)cc(OC)c1OC (stereo unspecified)", "assignedLabel": 1}
{"compound": "O=C(Nc1cccc(OC(=O)c2ccc(Cl)cc2)c1)c1ccc(Cl)cc1", "assignedLabel": 1}
{"compound": "COc1ccc(OC)c(CCNC(=O)CCC2=NS(=O)(=O)c3ccc(C(F)(F)F)cc3N2)c1", "assignedLabel": 1}
{"compound": "O=C(Cn1cc(C(=O)C2CC2)c2ccccc21)NCc1ccc2c(c1)OCO2", "assignedLabel": 1}
{"compound": "O=C(Nc1ccccc1)c1cn2c3c(cccc3c1=O)CC2", "assignedLabel": 1}
{"compound": "COc1cc(O)c2c(c1)C1=CC(=O)C(O)=C[C@]1(C)OC2=O", "assignedLabel": 1}
{"compound": "CCCc1cc(=O)n2[nH]c(COc3ccccc3)c(-c3ccccc3)c2n1", "assignedLabel": 1}
